Measure: N2 permeability (Barrer)
I only need the number, in Barrer, no unit after it.

Compound	Uom	N2 permeability
*Sc1ccc(*)cc1 (repeat unit)	Barrer	0.046
*CC(*)OC(=O)c1ccccc1C (repeat unit)	Barrer	0.0859
*Oc1cc2c(cc1O*)C1(c3cc(C)ccc3-2)c2cc(C)ccc2-c2cc3c(cc21)Oc1c(C#N)c(*)c(*)c(C#N)c1O3 (repeat unit)	Barrer	380

Q: Report measured N2 permeability; entry is *OC1OC(CO[N+](=O)[O-])C(OC2OC(O[N+](=O)[O-])C(O*)C(O)C2O[N+](=O)[O-])C(O)C1O[N+](=O)[O-] (repeat unit)
A: 0.12

Q: Report measured N2 permeability; entry is *c1c(C)cc2c(c1C)C1c3ccccc3C2c2cc(C)c(N3C(=O)c4ccc5c6c(ccc(c46)C3=O)C(=O)N(*)C5=O)c(C)c21 (repeat unit)
A: 97

Q: Report measured N2 permeability; entry is *Oc1ccc(C23CC4CC(C2)CC(c2ccc(Oc5ccc(S(=O)(=O)c6ccc(*)cc6)cc5)cc2)(C4)C3)cc1 (repeat unit)
A: 0.455

Q: Report measured N2 permeability; entry is *c1ccc(Cc2ccc(N3C(=O)c4ccc(S(=O)(=O)c5ccc6c(c5)C(=O)N(*)C6=O)cc4C3=O)cc2)cc1 (repeat unit)
A: 0.032

----------
Measure: log10 of O2 permeability (log10 of the value in Barrer)
// units: Barrer (pre-log); metric: O2 permeability; scale: log10

Please review the following examples before continuing.
Molecule	log10 of O2 permeability
*/C(C)=C(/*)c1ccc([Si](C)(C)C)cc1 (repeat unit)	2.38
*c1c(C)c(C)c(N2C(=O)c3ccc(Oc4cc(C(C)(C)C)ccc4Oc4ccc5c(c4)C(=O)N(*)C5=O)cc3C2=O)c(C)c1C (repeat unit)	1.08
*Oc1cc2c(cc1O*)C1(c3cc(C)ccc3-2)c2cc(C)ccc2-c2cc3c(cc21)Oc1c(C#N)c(*)c(*)c(C#N)c1O3 (repeat unit)	3.18

Q: Report measured log10 of O2 permeability; entry is */N=C1/c2cc(C(c3ccc4c(c3)C(=O)n3c-4nc4c(Oc5ccc(*)c(*)c5)cccc43)(C(F)(F)F)C(F)(F)F)ccc2C(=O)N1* (repeat unit)
A: 0.90

Q: Report measured log10 of O2 permeability; entry is *c1ccc(Oc2ccc(C(C)(C)c3ccc(Oc4ccc(N5C(=O)c6ccc(-c7ccc8c(c7)C(=O)N(*)C8=O)cc6C5=O)cc4)cc3)cc2)cc1 (repeat unit)
A: -0.22

Q: Report measured log10 of O2 permeability; entry is *OCCCCCC(*)=O (repeat unit)
A: 0.12

Q: Report measured log10 of O2 permeability; entry is *C(=O)c1ccc([Si](C)(C)c2ccc(C(*)=O)cc2)cc1 (repeat unit)
A: 0.74

----------
Param label: returns Fulfilled when CO2 permeability < 20 Barrer, returns Not fulfilled otherwise, including exact equality.

Molecule	Label Class
*c1ccc(Oc2ccc(C(c3ccc(Oc4ccc(N5C(=O)c6ccc(C(c7ccc8c(c7)C(=O)N(*)C8=O)(C(F)(F)F)C(F)(F)F)cc6C5=O)cc4)cc3)(C(F)(F)F)C(F)(F)F)cc2)cc1 (repeat unit)	Fulfilled
*c1ccc(Oc2cc3c(cc2C)OC2(CC3(C)C)CC(C)(C)c3cc(Oc4ccc(*)cc4)c(C)cc3O2)cc1 (repeat unit)	Not fulfilled
*C(=O)c1ccc(C2(c3ccc(C(=O)c4ccc(Oc5ccc(C(=O)c6ccc(Oc7ccc(*)cc7)cc6)cc5)cc4)cc3)OC(=O)c3ccccc32)cc1 (repeat unit)	Fulfilled

Q: Quick check: does *c1ccc2c(c1)-c1nc3ccc(-c4ccc5c(c4)nc4n5C(=O)c5cc(C(c6ccc7c(c6)C(=O)N(c6cc(C(c8ccc(O)c(N9C(=O)c%10ccc(C(*)(C(F)(F)F)C(F)(F)F)cc%10C9=O)c8)(C(F)(F)F)C(F)(F)F)ccc6O)C7=O)(C(F)(F)F)C(F)(F)F)ccc5-4)cc3n1C2=O (repeat unit) have CO2 permeability under 20 Barrer?
A: Fulfilled

Q: Quick check: does *c1ccc(Oc2ccc(C(c3ccc(Oc4ccc(N5C(=O)c6ccc(-c7ccc8c(c7)C(=O)N(*)C8=O)cc6C5=O)cc4C(F)(F)F)cc3)(C(F)(F)F)C(F)(F)F)cc2)c(C(F)(F)F)c1 (repeat unit) have CO2 permeability under 20 Barrer?
A: Fulfilled

----------
Readings of CH4 permeability for the listed compounds
I only need the number, in Barrer, no unit after it.

Compound	Uom	CH4 permeability
*c1ccc(Cc2ccc(N3C(=O)c4ccc(-c5ccc6c(c5)C(=O)N(*)C6=O)cc4C3=O)c(C)c2)cc1C (repeat unit)	Barrer	0.0278
*C(=C(*)c1ccc2c(c1)C(C)(C)c1ccccc1-2)c1ccc(F)cc1 (repeat unit)	Barrer	11000
*Oc1ccc(S(=O)(=O)c2ccc(Oc3ccc(Cc4ccc(*)cc4)cc3)cc2)cc1 (repeat unit)	Barrer	0.188
*Oc1cc2c(cc1O*)C1(c3ccccc3-2)c2ccccc2-c2cc3c(cc21)Oc1c(C#N)c(*)c(*)c(C#N)c1O3 (repeat unit)	Barrer	622
*=CC1CC(C=*)C2C1C([Si](O[Si](C)(C)C)(O[Si](C)(C)C)O[Si](C)(C)C)C2[Si](O[Si](C)(C)C)(O[Si](C)(C)C)O[Si](C)(C)C (repeat unit)	Barrer	300

Kindly review the next compound as well.
Q: Report measured CH4 permeability; entry is *c1ccc(-c2ccc(-n3c(=O)c4cc5oc6cc7c(cc6oc5cc4c3=O)C3(CC(C)(C)c4cc5oc6cc8c(=O)n(*)c(=O)c8cc6oc5cc43)CC7(C)C)cc2C(F)(F)F)c(C(F)(F)F)c1 (repeat unit)
A: 20

----------
Measure: O2 permeability
Put your answer as a value accompanied by its unit after it.

Compound	Measure	Test Result
*C(=C(*)c1ccc([Si](C)(C)CCCCCCCC)cc1)c1ccc(C(C)C)cc1 (repeat unit)	O2 permeability	29 Barrer
*C(=C(*)c1ccc(C(C)C)cc1)c1ccccc1 (repeat unit)	O2 permeability	300 Barrer
*c1c(C)c2c(c(N3C(=O)c4ccc(C(c5ccc6c(c5)C(=O)N(*)C6=O)(C(F)(F)F)C(F)(F)F)cc4C3=O)c1C)C(C)(C)CC2 (repeat unit)	O2 permeability	198 Barrer

Kindly review the next compound as well.
Q: Report measured O2 permeability; entry is *CC(*)c1ccc(C(C)(C)C)cc1 (repeat unit)
A: 35.5 Barrer

----------
Param label: returns T when N2 permeability < 2 Barrer, returns F otherwise, including exact equality.

Molecule	Label Class
*/N=C1/c2cc(C(c3ccc4c(c3)C(=O)n3c-4nc4c(Oc5ccc(*)c(*)c5)cccc43)(C(F)(F)F)C(F)(F)F)ccc2C(=O)N1* (repeat unit)	T

Q: Quick check: does */C=C/C1CC(*)CC1[Si](C)(C)C (repeat unit) have N2 permeability under 2 Barrer?
A: F

Q: Quick check: does */C=C/c1ccc(*)cc1[Si](CC)(CC)CC (repeat unit) have N2 permeability under 2 Barrer?
A: T

Q: Quick check: does *C(=C(*)c1ccc2c(c1)C(C)(C)CCC2(C)C)c1ccccc1 (repeat unit) have N2 permeability under 2 Barrer?
A: F

Q: Quick check: does *c1ccc(Oc2cccc(-n3c(=O)c4cc5c(=O)n(*)c(=O)c5cc4c3=O)c2)cc1 (repeat unit) have N2 permeability under 2 Barrer?
A: T

Q: Quick check: does *c1ccc(Sc2ccc(Sc3ccc(Sc4ccc(N5C(=O)c6ccc(C(c7ccc8c(c7)C(=O)N(*)C8=O)(C(F)(F)F)C(F)(F)F)cc6C5=O)cc4)cc3)cc2)cc1 (repeat unit) have N2 permeability under 2 Barrer?
A: T

Q: Quick check: does *c1cc2c(cc1C)-c1cc(C)c(N3C(=O)c4cc5c(cc4C3=O)S(=O)(=O)c3cc4c(cc3S5(=O)=O)C(=O)N(*)C4=O)cc1S2(=O)=O (repeat unit) have N2 permeability under 2 Barrer?
A: T

----------
Readings of log10(N2 permeability) for the listed molecules
// units: Barrer (pre-log); metric: N2 permeability; scale: log10

Please review the following examples before continuing.
Molecule	Test Result
*Oc1ccc(S(=O)(=O)c2ccc(Oc3c(C)cc(C(C)(C)c4cc(C)c(*)c(C)c4)cc3C)cc2C(O)(C(F)(F)F)C(F)(F)F)c(C(O)(C(F)(F)F)C(F)(F)F)c1 (repeat unit)	0.18
*Oc1ccc(-c2ccc(Oc3ccc(S(=O)(=O)c4ccc(*)cc4)cc3)cc2)cc1 (repeat unit)	-0.62
*Oc1c(C)cc(C(c2cc(C)c(Oc3ccc(S(=O)(=O)c4ccc(*)cc4)cc3)c(C)c2)(C(F)(F)F)C(F)(F)F)cc1C (repeat unit)	0.60
*c1ccc(Cc2ccc(N3C(=O)c4ccc(-c5ccc6c(c5)C(=O)N(*)C6=O)cc4C3=O)c(Cl)c2)cc1Cl (repeat unit)	-1.51
*C=CCCC* (repeat unit)	2.00
*Oc1c(C)cc(C(C)(C)c2cc(C)c(Oc3ccc(C(=O)c4ccc(*)cc4)cc3)c(C)c2)cc1C (repeat unit)	0.04

Q: Report measured log10(N2 permeability); entry is *c1ccc(Oc2ccc(N3C(=O)c4ccc(Oc5ccc(Oc6ccc7c(c6)C(=O)N(*)C7=O)cc5)cc4C3=O)cc2)cc1 (repeat unit)
A: -1.47
